Hello, the source for this data is paper PMC3963918, in case you need it.

B1: unnamed (parent)
chain 1: METLCQRLNVCQDKILTHYENDSTDLRDHIDYWKHMRLECAIYYKAREMGFKHINHQVVPTLAVSKNKALQAIELQLTLETIYNSQYSNEKWTLQDVSLEVYLTAPTGCIKKHGYTVEVQFDGDICNTMHYTNWTHIYICEEASVTVVEGQVDYYGLYYVHEGIRTYFVQFKDDAEKYSKNKVWEVHAGGQVILCPTSVFSSNEVSSPEIIRQHLANHPAATHTKAVALGTEETQTTIQRPRSEPDTGNPCHTTKLLHRDSVDSAPILTAFNSSHKGRINCNSNTTPIVHLKGDANTLKCLRYRFKKHCTLYTAVSSTWHWTGHNVKHKSAIVTLTYDSEWQRDQFLSQVKIPKTITVSTGFMSI
chain 2: MDQNNSLPPYAQGLASPQGAMTPGIPIFSPMMPYGTGLTPQPIQNTNSLSILEEQQRQQQQQQQQQQQQQQQQQQQQQQQQQQQQQQQQQQQQQQAVAAAAVQQSTSQQATQGTSGQAPQLFHSQTLTTAPLPGTTPLYPSPMTPMTPITPATPASESSGIVPQLQNIVSTVNLGCKLDLKTIALRARNAEYNPKRFAAVIMRIREPRTTALIFSSGKMVCTGAKSEEQSRLAARKYARVVQKLGFPAKFLDFKIQNMVGSCDVKFPIRLEGLVLTHQQFSSYEPELFPGLIYRMIKPRIVLLIFVSGKVVLTGAKVRAEIYEAFENIYPILKGFRKTT

# Variants of: B1
# test name: GPCA
# assay context: with partner chain of the complex shown;; read off a plot
Binary call on ratio to parent with cut-off 1: strictly below means 1, and equality or higher means -1.

Decide: ratio to parent of chain 1 E39A strictly below 1?
-1

Item chain 1 R27D : ratio to parent beneath 1, strictly?
1

Confirm or reject: ratio to parent of chain 1 I73A lies strictly below 1
1

Please determine if chain 1 N181T is below 1 in terms of ratio to parent.
1

is_below(ratio to parent, 1) for chain 1 R37A ?
-1
